protocol summary: stimulators of nuclear beta-catenin in C2C12, primary screen, imaging, WNT3A-conditioned medium, mouse C2C12, NPC library (AID 1117326); also: reference of the scale not given here
details: stimulation, at 2 µM, stronger effect = higher value
Catalogue of nuclear beta-catenin stimulation readings, one per entry.
Write the number in % without appending the unit.

Ask: Look up and report measured nuclear beta-catenin stimulation for this entry: Cc1cccc(C)c1NC(=O)c1cc(S(N)(=O)=O)c(Cl)cc1O
Reply: 0.7

Continuing:
Ask: Look up and report measured nuclear beta-catenin stimulation for this entry: CC(C)CCC[C@@H](C)[C@H]1CC[C@H]2[C@@H]3CC=C4C[C@@H](O)CC[C@]4(C)[C@@H]3CC[C@]12C
Reply: -1

Ask: Look up and report measured nuclear beta-catenin stimulation for this entry: CC(C)(C)C1CCC(CC2=C(O)c3ccccc3C(=O)C2=O)CC1 (stereo unspecified)
Reply: -0.5

Ask: Look up and report measured nuclear beta-catenin stimulation for this entry: NCCc1ccc(O)c(O)c1
Reply: 0.8

Ask: Look up and report measured nuclear beta-catenin stimulation for this entry: O=C(c1ccco1)N1CCNCC1
Reply: -0.4

Ask: Look up and report measured nuclear beta-catenin stimulation for this entry: CCc1cc(S(=O)(=O)O)c2cc(C(C)C)cccc1-2
Reply: -2.2

---

protocol summary: IRF3 reporter activation in THP-1 macrophages, cell-based, PMA-stimulated THP-1, luminescence (AID 1053176)
details: PMA-differentiated THP-1, IRF3 reporter luminescence; stronger effect = higher value
Active and inactive are the calls of the source. No rule for the calls is given here.
readout name: fraction signal

# annotated cases, reported fraction signal shown
Ask: Look up and report measured fraction signal for this entry: Cn1cc(C2=C(c3ccccc3)C(=O)NC2=O)c2ccccc21
Reply: -0.001 (inactive)

Ask: Look up and report measured fraction signal for this entry: COc1cc2ncnc(Nc3ccc(C)c(O)c3)c2cc1OC
Reply: 0.0075 (inactive)

Ask: Look up and report measured fraction signal for this entry: O=C1NC(=O)C(c2cccc(Cl)c2)=C1Nc1ccc(O)c(Cl)c1
Reply: -0.0075 (inactive)

Ask: Look up and report measured fraction signal for this entry: O=C1Nc2ccc(I)cc2/C1=C\c1cc(Br)c(O)c(Br)c1
Reply: -0.0105 (inactive)

Ask: Look up and report measured fraction signal for this entry: CS(=O)(=O)Nc1ccc(-c2ccc3c(NC(=O)C4CC4)n[nH]c3c2)cc1
Reply: -0.009 (inactive)

Ask: Look up and report measured fraction signal for this entry: Nc1c(C(=O)c2cccc(OCC(O)CO)c2)cnn1-c1ccc(F)cc1 (stereo unspecified)
Reply: -0.0115 (inactive)

Ask: Look up and report measured fraction signal for this entry: FC(F)(F)c1ccc(-c2nn3ncccc3c2-c2ccnc(Nc3ccc4c(c3)OCCO4)n2)cc1
Reply: 0.001 (inactive)

Ask: Look up and report measured fraction signal for this entry: O=C1NC(=NCc2c(Cl)cccc2Cl)SC1=Cc1ccc2ncccc2c1
Reply: -0.009 (inactive)

Continuing:
Ask: Look up and report measured fraction signal for this entry: COc1ccccc1Oc1nccc(-c2c(-c3ccc(F)cc3)ncn2C2CCNCC2)n1
Reply: 0.001 (inactive)

Ask: Look up and report measured fraction signal for this entry: CCn1c(-c2nonc2N)nc2ccccc21
Reply: -0.0025 (inactive)

Ask: Look up and report measured fraction signal for this entry: CN(C)CC#Cc1cccc(C(=O)c2cnn(-c3ccc(F)cc3)c2N)c1
Reply: -0.001 (inactive)

---

protocol summary: CellTiter-Glo luminescent readout of SW480 viability loss, NPC library primary (AID 1117343)
details: CellTiter-Glo luminescence; at 20 µM (top of the series)
Calls of active or inactive are those of the source.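 How the source made its calls: active means compounds that lower viability of the colon cancer cells in the luminescence readout, with no numeric limit stated; inactive means the rest.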
readout name: viability decrease (inhibition)

# annotated cases, reported viability decrease (inhibition) shown
Ask: Look up and report measured viability decrease (inhibition) for this entry: Cc1c(F)cc2c(=O)c(C(=O)O)cn3c2c1CCC3C (stereo not drawn)
Reply: -16.3% (inactive)

Ask: Look up and report measured viability decrease (inhibition) for this entry: CC1=C(CC(=O)O)c2cc(F)ccc2/C1=C\c1ccc(S(C)=O)cc1 (stereo not drawn)
Reply: 15% (inactive)

Ask: Look up and report measured viability decrease (inhibition) for this entry: CC(C(O)c1ccccc1)N(C)CCOC(c1ccccc1)c1ccccc1 (stereo not drawn)
Reply: 133% (active)

Ask: Look up and report measured viability decrease (inhibition) for this entry: CC(CC1c2ccccc2CCc2ccccc21)CN(C)C (stereo not drawn)
Reply: 84.4% (active)

# next molecule below
Ask: Look up and report measured viability decrease (inhibition) for this entry: COc1cc2[nH]c(=O)[nH]c(=O)c2cc1OC
Reply: 47.6% (inactive)

---

Catalogue of viability decrease (inhibition) readings, one per entry.
protocol summary: decreased DLD-1 cellular survival, CellTiter-Glo luminescent readout, NPC compound collection, primary HTS (AID 1117346)
details: DLD-1 viability, CellTiter-Glo luminescence; at 20 µM (top of the series)
Write the number in % without appending the unit.

# annotated cases, reported viability decrease (inhibition) shown
Ask: Look up and report measured viability decrease (inhibition) for this entry: O[C@@H]1CO[C@H]2[C@@H]1OC[C@@H]2O
Reply: -4.4

Ask: Look up and report measured viability decrease (inhibition) for this entry: NS(=O)(=O)c1cc2c(cc1C(F)(F)F)NCNS2(=O)=O
Reply: -13.4

Continuing:
Ask: Look up and report measured viability decrease (inhibition) for this entry: CCOc1ccc2ccccc2c1C(=O)N[C@@H]1C(=O)N2[C@@H]1SC(C)(C)[C@@H]2C(=O)O
Reply: -29.8

Ask: Look up and report measured viability decrease (inhibition) for this entry: CC(C)Cc1ccc(C(C)C(=O)OCc2ccccn2)cc1 (stereo not given)
Reply: 19.1

Ask: Look up and report measured viability decrease (inhibition) for this entry: Cc1onc(-c2c(Cl)cccc2Cl)c1C(=O)N[C@@H]1C(=O)N2[C@@H]1SC(C)(C)[C@@H]2C(=O)O
Reply: -11.8

---

protocol summary: inhibition of endothelial tube formation, primary screen, imaging, VEGF stimulated, CD31 staining, tube area, NPC library (AID 1117340)
details: VEGF-stimulated ADSC/ECFC co-culture, at 10 µM, stronger effect = higher value
Parameter threshold = 20%. Response is criterion met when tube area decrease meets or exceeds it, else criterion not met.

Please review the entries below; each comes with its answer.
Ask: Please indicate if the recorded tube area decrease for Nc1nc(N)c(-c2ccccc2)s1 meets or exceeds 20%.
Reply: criterion not met

Ask: Please indicate if the recorded tube area decrease for Oc1cccc(O)c1O meets or exceeds 20%.
Reply: criterion met

Ask: Please indicate if the recorded tube area decrease for CCOCCn1c(C2CCN(CCc3ccc(C(C)(C)C(=O)O)cc3)CC2)nc2ccccc21 meets or exceeds 20%.
Reply: criterion not met

Ask: Please indicate if the recorded tube area decrease for CC1(C)O[C@@H]2C[C@H]3[C@@H]4C[C@H](F)C5=CC(=O)C=C[C@]5(C)[C@H]4[C@@H](O)C[C@]3(C)[C@]2(C(=O)CO)O1 meets or exceeds 20%.
Reply: criterion not met

Ask: Please indicate if the recorded tube area decrease for CN(C)C(=O)Oc1ccc[n+](C)c1 meets or exceeds 20%.
Reply: criterion not met

Now consider the entry below.
Ask: Please indicate if the recorded tube area decrease for CC(C)CCC[C@@H](C)[C@H]1CC[C@H]2[C@@H]3CC=C4C[C@@H](O)CC[C@]4(C)[C@@H]3CC[C@]12C meets or exceeds 20%.
Reply: criterion met

---

protocol summary: activators of macrophage pro-inflammatory response, cell-based, murine, luminescence (AID 652131)
details: murine macrophage pro-inflammatory reporter, stronger effect = higher value
Class boundaries, taken from values of z-score, are as follows: lower segment (below -0.4), middle segment (-0.4 to below 0.06), upper segment (0.06 or more)

Please review the entries below; each comes with its answer.
Ask: // bin(item) where item = Nc1ncnc2occ(-c3ccc(NC(=O)Nc4cccc(C(F)(F)F)c4)cc3)c12
Reply: lower segment

Ask: // bin(item) where item = COc1cc(Nc2ncc(-c3ccccc3)o2)cc(OC)c1OC
Reply: middle segment

Continuing:
Ask: // bin(item) where item = N#Cc1c(NC(=O)c2ccc(F)c3ccccc23)sc2c1CCCC2
Reply: lower segment

Ask: // bin(item) where item = c1ccc(-c2nc3n(c2-c2ccc4c(c2)OCO4)CCC3)nc1
Reply: upper segment

Ask: // bin(item) where item = O=C1NC(=O)C(c2ccccc2Cl)=C1Nc1cccc(O)c1
Reply: upper segment

Ask: // bin(item) where item = Cc1cccc2c(N=Nc3ccc(S(N)(=O)=O)cc3)c(O)[nH]c12
Reply: middle segment

Ask: // bin(item) where item = Fc1ccc(-c2ncn(C3CCNCC3)c2-c2ccnc(Oc3ccc4c(c3)OCO4)n2)cc1
Reply: upper segment

Ask: // bin(item) where item = COc1ccc(-c2coc3ncnc(N)c23)cc1
Reply: lower segment

Ask: // bin(item) where item = Nc1nc(-c2ccccn2)c(-c2ccc3ncccc3n2)s1
Reply: upper segment

Ask: // bin(item) where item = Nc1ccc(C#Cc2cncnc2Nc2ccc(OCc3cccc(F)c3)c(Cl)c2)cc1
Reply: lower segment
